Reference source for all entries: ChEMBL document CHEMBL1268945

For each of the compounds below, state its CC50.
- assay explanation: Cytotoxicity against human HPC cells
- Assay type: cell-based
One number for each entry, in nM.

Example compounds with recorded CC50:
Cc1ccc(/C=C2\CN(P(=O)(O)O)C/C(=C\c3ccc(C)cc3)C2=O)cc1 = 3300
CCOP(=O)(OCC)N1C/C(=C\c2ccc(OC)cc2)C(=O)/C(=C/c2ccc(OC)cc2)C1 = 41000
CCOP(=O)(OCC)N1C/C(=C\c2cccc([N+](=O)[O-])c2)C(=O)/C(=C/c2cccc([N+](=O)[O-])c2)C1 = 1500

List CC50 for every entry below, keeping the order given.
1. CCOP(=O)(OCC)N1C/C(=C\c2ccc(Cl)cc2)C(=O)/C(=C/c2ccc(Cl)cc2)C1
2. N[C@@H](Cc1ccc(N(CCCl)CCCl)cc1)C(=O)O
3. CCOP(=O)(OCC)N1C/C(=C\c2cc(OC)c(OC)c(OC)c2)C(=O)/C(=C/c2cc(OC)c(OC)c(OC)c2)C1
4. O=C1/C(=C/c2ccc([N+](=O)[O-])cc2)CN(P(=O)(O)O)C/C1=C\c1ccc([N+](=O)[O-])cc1

Reply text:
2800
269000
1300
1600

====

Exercise: for every item that follows, state its recorded CC50.
- assay explanation: Cytotoxicity against human HPLF cells
- Assay type: cell-based
One number for each entry, in µM.

Use the examples below as a reference point.
Cc1ccc(/C=C2\CN(P(=O)(O)O)C/C(=C\c3ccc(C)cc3)C2=O)cc1 = 6.1
CCOP(=O)(OCC)N1C/C(=C\c2ccc(OC)c(OC)c2)C(=O)/C(=C/c2ccc(OC)c(OC)c2)C1 = 5.3
CCOP(=O)(OCC)N1C/C(=C\c2cccc([N+](=O)[O-])c2)C(=O)/C(=C/c2cccc([N+](=O)[O-])c2)C1 = 3.9

Inquiry: Item `CCOP(=O)(OCC)N1C/C(=C\c2ccc(OC)cc2)C(=O)/C(=C/c2ccc(OC)cc2)C1` has what recorded CC50?
Reply text: 46

====

Exercise: state measured log10 of CC50 for each of the molecules provided.
- assay explanation: Cytotoxicity against human HGF cells
- Format: cell-based
The figures below represent log10 of CC50, where CC50 is stated in µM.

Your task in this section: give log10 of CC50 for each listed record.
1. O=C1/C(=C/c2ccccc2)CN(P(=O)(O)O)C/C1=C\c1ccccc1
2. CCOP(=O)(OCC)N1C/C(=C\c2cc(OC)c(OC)c(OC)c2)C(=O)/C(=C/c2cc(OC)c(OC)c(OC)c2)C1
3. CCOP(=O)(OCC)N1C/C(=C\c2ccc([N+](=O)[O-])cc2)C(=O)/C(=C/c2ccc([N+](=O)[O-])cc2)C1
4. Cc1ccc(/C=C2\CN(P(=O)(O)O)C/C(=C\c3ccc(C)cc3)C2=O)cc1
5. CCOP(=O)(OCC)N1C/C(=C\c2cccc([N+](=O)[O-])c2)C(=O)/C(=C/c2cccc([N+](=O)[O-])c2)C1
6. O=C1/C(=C/c2cccc([N+](=O)[O-])c2)CN(P(=O)(O)O)C/C1=C\c1cccc([N+](=O)[O-])c1

Reply text:
1: 0.84; 2: 0.30; 3: 0.49; 4: 0.77; 5: 0.34; 6: 0.36

# batch size: 6; output log10 of CC50 per entry
1. COc1cc(/C=C2\CN(P(=O)(O)O)C/C(=C\c3cc(OC)c(OC)c(OC)c3)C2=O)cc(OC)c1OC
2. O=C1/C(=C/c2ccc([N+](=O)[O-])cc2)CN(P(=O)(O)O)C/C1=C\c1ccc([N+](=O)[O-])cc1
3. O=C1/C(=C/c2ccc(Cl)cc2)CN(P(=O)(O)O)C/C1=C\c1ccc(Cl)cc1
4. CCOP(=O)(OCC)N1C/C(=C\c2ccc(C)cc2)C(=O)/C(=C/c2ccc(C)cc2)C1
5. CCOP(=O)(OCC)N1C/C(=C\c2ccc(Cl)cc2)C(=O)/C(=C/c2ccc(Cl)cc2)C1
6. CCOP(=O)(OCC)N1C/C(=C\c2ccccc2)C(=O)/C(=C/c2ccccc2)C1

Reply text:
1: -0.06; 2: 0.61; 3: 0.77; 4: 1.45; 5: 0.63; 6: 1.04

Please give log10 of CC50 for each item listed below.
1. COc1ccc(/C=C2\CN(P(=O)(O)O)C/C(=C\c3ccc(OC)c(OC)c3)C2=O)cc1OC
2. N[C@@H](Cc1ccc(N(CCCl)CCCl)cc1)C(=O)O [MELPHALAN]

Reply text:
1: 0.41; 2: 2.21
